target: Cathepsin D (Cat D) (Homo sapiens); construct: made in house; host or cells: CHO cells; assay: In vitro enzymatic Cathepsin D (Cat D) FRET assay; format: biochemical; settings: average IC50; first procedure; read-out: CatD IC50
Sequence (P07339 65-412, species assumed): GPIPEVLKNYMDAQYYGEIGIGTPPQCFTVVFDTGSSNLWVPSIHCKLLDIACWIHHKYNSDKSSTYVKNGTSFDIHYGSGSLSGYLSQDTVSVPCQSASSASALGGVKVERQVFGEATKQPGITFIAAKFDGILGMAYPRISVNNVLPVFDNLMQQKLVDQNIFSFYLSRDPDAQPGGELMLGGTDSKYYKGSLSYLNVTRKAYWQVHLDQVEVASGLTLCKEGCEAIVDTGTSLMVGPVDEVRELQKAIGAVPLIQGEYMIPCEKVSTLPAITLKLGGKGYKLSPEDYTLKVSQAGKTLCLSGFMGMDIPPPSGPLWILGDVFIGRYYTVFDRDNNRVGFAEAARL
property_measured: pIC50
Kindly note that pIC50 refers to -log10 of the concentration in mol/L and answer with the value alone.

input: Entry C[C@]1(c2cc(Nc3ncc(F)c4cc(Cl)cnc34)ccc2F)N=C(N)[C@@]2(CF)CC[C@@H]1S2(=O)=O has what pIC50?
output: 3.12

input: Data request, read-out pIC50, for CC#CCOc1cnc(C(=O)Nc2ccc(F)c([C@@]3(C)N=C(N)[C@@]4(C)CC[C@@H]3S4(=O)=O)c2)cn1
output: 3.14

input: Which measured pIC50 value corresponds to C[C@]1(c2cc(Nc3nccc4nc(OCc5ncco5)cnc34)ccc2F)N=C(N)[C@@]2(C)CC[C@@H]1S2(=O)=O ?
output: 3.07

input: If you can, please state the reported pIC50 value of CC#CCOc1cnc2c(Nc3ccc(F)c([C@@]4(C)N=C(N)[C@]5(C)CC[C@H]4S5(=O)=O)c3)nccc2n1 .
output: 2.93

input: Name the reported pIC50 value associated with the molecule C[C@]1(c2cc(Nc3nccc4nc(OCc5ncco5)cnc34)ccc2F)N=C(N)[C@@]2(CF)CC[C@@H]1S2(=O)=O
output: 3.10

input: Entry under review: C[C@]1(c2cc(Nc3ncnc4cc(Cl)cnc34)ccc2F)N=C(N)[C@@]2(CF)CC[C@@H]1S2(=O)=O . Reported pIC50?
output: 3.54

input: Which value of pIC50 has been reported for C[C@]1(c2cc(Nc3nccc4[nH]c(=O)cnc34)ccc2F)N=C(N)[C@@]2(CF)CC[C@@H]1S2(=O)=O in the records?
output: 3.66

input: I would be grateful if you could share the reported pIC50 for C#CCOc1cnc(C(=O)Nc2ccc(F)c([C@@]3(C)N=C(N)[C@@]4(CF)CC[C@@H]3S4(=O)=O)c2)c(Cl)c1 .
output: 3.02

input: For C[C@]1(c2cc(NC(=O)c3ccc(C#CC4CC4)cn3)ccc2F)N=C(N)[C@@]2(C)CC[C@@H]1S2(=O)=O , what is its reported pIC50?
output: 3.33

input: Value lookup for pIC50; key = CC#CCOc1cnc2c(Nc3ccc(F)c([C@@]4(C)N=C(N)[C@]5(C)CC[C@H]4S5(=O)=O)c3)ncc(F)c2c1
output: 3.21

input: I'd like to know its pIC50. The molecule in question is COc1cnc2c(Nc3ccc(F)c([C@@]4(C)N=C(N)[C@]5(C)CC[C@H]4S5(=O)=O)c3)ncnc2c1
output: 2.93

input: If you can, please state the reported pIC50 value of C[C@]1(c2cc(Nc3ncnc4cc(C(F)(F)F)cnc34)ccc2F)N=C(N)[C@@]2(C)CC[C@@H]1S2(=O)=O .
output: 3.50

input: State the recorded pIC50 for this entry: CC#CCOc1cnc2c(Nc3ccc(F)c([C@@]4(C)N=C(N)[C@@]5(C)CC[C@@H]4S5(=O)=O)c3)nccc2n1
output: 3.91

input: Record request: pIC50 value, item C[C@]12CC[C@H]([C@@](C)(c3cc(NC(=O)c4c(F)cc(Br)cc4F)ccc3F)N=C1N)S2(=O)=O
output: 2.66

input: Param item = C[C@]1(c2cc(Nc3ncnc4cc(Br)cnc34)ccc2F)N=C(N)[C@@]2(CF)CC[C@@H]1S2(=O)=O ; retrieve measured pIC50.
output: 3.76

input: Dear colleague, I am looking for the recorded pIC50 of the following molecule: C[C@]12CC[C@H]([C@@](C)(c3cc(Nc4nccc5cc(C#N)cnc45)ccc3F)N=C1N)S2(=O)=O
output: 2.84

input: Endpoint output: pIC50 of C[C@]1(c2cc(NC(=O)c3cnc(C(F)F)cn3)ccc2F)N=C(N)[C@@]2(CF)CC[C@@H]1S2(=O)=O . Value?
output: 2.98

input: GET /values?readout=pIC50&item= COCc1ccc(C(=O)Nc2ccc(F)c([C@@]3(C)N=C(N)[C@@]4(C)CC[C@@H]3S4(=O)=O)c2)nc1
output: 2.47

input: Requested read-out: pIC50. Entry: C[C@]1(c2cc(NC(=O)c3ccc(Cl)cn3)ccc2F)N=C(N)[C@@]2(CF)CC[C@@H]1S2(=O)=O
output: 3.24

input: Which pIC50 value is on record for COc1cnc(C(=O)Nc2ccc(F)c([C@@]3(C)N=C(N)[C@@]4(C)CC[C@@H]3S4(=O)=O)c2)c(C)n1 ?
output: 2.74
